System: L-540 (Hodgkin's Lymphoma);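 further: after 72 h of two-drug dosing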
experiment notes: Bliss excess, mean over the matrix (fraction); higher = more synergy
Please go through the items and note down their Bliss excess.
One number for each entry.

Here are 2 compounds together with their reported answers.
Cn1cnc2c(F)c(Nc3ccc(Br)cc3Cl)c(C(=O)NOCCO)cc21 [Selumetinib] + C=CCn1c(=O)c2cnc(Nc3ccc(N4CCN(C)CC4)cc3)nc2n1-c1cccc(C(C)(C)O)n1 [AZD1775] (first compound max 10 µM, partner max 1 µM) : -0.0374
CCN(CCO)CCCOc1ccc2c(Nc3cc(CC(=O)Nc4cccc(F)c4)[nH]n3)ncnc2c1 [AZD2811] + C=CCn1c(=O)c2cnc(Nc3ccc(N4CCN(C)CC4)cc3)nc2n1-c1cccc(C(C)(C)O)n1 [AZD1775] (first compound max 1 µM, partner max 1 µM) : 0.0772

Now look at this one.
get_value(item= NC1(C(=O)N[C@@H](CCO)c2ccc(Cl)cc2)CCN(c2ncnc3[nH]ccc23)CC1 [Capivasertib] + COc1nnc2ccc(N3CCC(c4ccc(OCCN5CCN(C)C(=O)[C@H]5C)cc4)CC3)nn12 [AZD5153] (first compound max 10 µM, 7x7, partner max 1 µM) , readout=Bliss excess) returns -0.0794

---

System: WIL2-NS (Non-Cancerous)
experiment notes: combination Emax (second highest fraction inhibited in the dose matrix, 72 h); higher = more inhibition; extreme values may be limits of the assay
Use Condition met when the recorded combination Emax is no lower than 0.6; use Condition not met when it is lower.

Use the examples below as a reference point.
CN(CCO)CC[C@H](CSc1ccccc1)Nc1ccc(S(=O)(=O)NC(=O)c2ccc(N3CCC([C@@H](O)c4ccccc4-c4ccc(Cl)cc4)CC3)cc2)cc1S(=O)(=O)C(F)(F)F [AZD4320] + C=CCn1c(=O)c2cnc(Nc3ccc(N4CCN(C)CC4)cc3)nc2n1-c1cccc(C(C)(C)O)n1 [AZD1775] (first compound max 1 µM, partner max 1 µM) : Condition met
NC1(C(=O)N[C@@H](CCO)c2ccc(Cl)cc2)CCN(c2ncnc3[nH]ccc23)CC1 [Capivasertib] + CCN(CCO)CCCOc1ccc2c(Nc3cc(CC(=O)Nc4cccc(F)c4)[nH]n3)ncnc2c1 [AZD2811] (first compound max 10 µM, 7x7, partner max 1 µM) : Condition met
Cc1c2c(nn1C)CSCc1cc(n(C)n1)CSc1cc(c3ccccc3c1)OCCCc1c(C(=O)O)n(C)c3c-2c(Cl)ccc13 [AZD5991] + C[C@@H](Nc1cc(F)cc(F)c1)c1cc(C(=O)N(C)C)cc2c(=O)cc(N3CCOCC3)oc12 [AZD8186] (first compound max 1 µM, 7x7, partner max 3 µM) : Condition not met
Cc1cc2ncnn2cc1Nc1ncc2c(n1)n(C1CCOCC1)c(=O)n2C [AZD7648] + C=CCn1c(=O)c2cnc(Nc3ccc(N4CCN(C)CC4)cc3)nc2n1-c1cccc(C(C)(C)O)n1 [AZD1775] (first compound max 10 µM, partner max 1 µM) : Condition met
Cn1cnc2c(F)c(Nc3ccc(Br)cc3Cl)c(C(=O)NOCCO)cc21 [Selumetinib] + CC(C)n1c(=O)n(C)c2cnc3cc(F)c(-c4ccc(OCCCN5CCCCC5)nc4)cc3c21 [AZD1390] (first compound max 10 µM, 7x7, partner max 0.3 µM) : Condition not met

Now take the following compound into account.
Could you verify whether the entry C[C@@H](c1ccc2nccn2c1)n1nnc2ncc(-c3cnn(C)c3)nc21 [Savolitinib] + CC1(C)CCC(CN2CCN(c3ccc(C(=O)NS(=O)(=O)c4ccc(NCC5CCOCC5)c([N+](=O)[O-])c4)c(Oc4cnc5[nH]ccc5c4)c3)CC2)=C(c2ccc(Cl)cc2)C1 [Venetoclax] (first compound max 1 µM, 7x7, partner max 1 µM) shows combination Emax of no less than 0.6?
Condition not met

---

Test system: U251 (Low Grade Glioma)
experiment notes: combination Emax (second highest fraction inhibited in the dose matrix, 72 h); higher = more inhibition; extreme values may be limits of the assay
Please go through the items and note down their combination Emax.
Give bare numbers.

COc1cccc(OCCCN)c1-c1cc(Nc2cnc(C#N)cn2)n[nH]1 [Prexasertib] + C=CCn1c(=O)c2cnc(Nc3ccc(N4CCN(C)CC4)cc3)nc2n1-c1cccc(C(C)(C)O)n1 [AZD1775] (first compound max 1 µM, partner max 1 µM) : 0.783

Now look at this one.
get_value(item= NC1(C(=O)N[C@@H](CCO)c2ccc(Cl)cc2)CCN(c2ncnc3[nH]ccc23)CC1 [Capivasertib] + Cn1cnc2c(F)c(Nc3ccc(Br)cc3Cl)c(C(=O)NOCCO)cc21 [Selumetinib] (first compound max 10 µM, 7x7, partner max 10 µM) , readout=combination Emax) returns 0.494

---

Tested on: MKN28 (Gastric Carcinoma)
experiment notes: combination Emax (second highest fraction inhibited in the dose matrix, 72 h); higher = more inhibition; extreme values may be limits of the assay
Use met when the recorded combination Emax is no lower than 0.2; use not met when it is lower.

Use the examples below as a reference point.
Cc1cc2ncnn2cc1Nc1ncc2c(n1)n(C1CCOCC1)c(=O)n2C [AZD7648] + C=CCn1c(=O)c2cnc(Nc3ccc(N4CCN(C)CC4)cc3)nc2n1-c1cccc(C(C)(C)O)n1 [AZD1775] (first compound max 10 µM, partner max 1 µM) : met
CC(=O)c1c(C)c2cnc(Nc3ccc(N4CCNCC4)cn3)nc2n(C2CCCC2)c1=O [Palbociclib] + Cc1c2c(nn1C)CSCc1cc(n(C)n1)CSc1cc(c3ccccc3c1)OCCCc1c(C(=O)O)n(C)c3c-2c(Cl)ccc13 [AZD5991] (first compound max 10 µM, 7x7, partner max 1 µM) : not met
C[C@@H](Nc1cc(F)cc(F)c1)c1cc(C(=O)N(C)C)cc2c(=O)cc(N3CCOCC3)oc12 [AZD8186] + CC(=O)c1c(C)c2cnc(Nc3ccc(N4CCNCC4)cn3)nc2n(C2CCCC2)c1=O [Palbociclib] (first compound max 10 µM, 7x7, partner max 10 µM) : met
CC1(C)CCC(CN2CCN(c3ccc(C(=O)NS(=O)(=O)c4ccc(NCC5CCOCC5)c([N+](=O)[O-])c4)c(Oc4cnc5[nH]ccc5c4)c3)CC2)=C(c2ccc(Cl)cc2)C1 [Venetoclax] + CS(=O)(=O)CCNCc1ccc(-c2ccc3ncnc(Nc4ccc(OCc5cccc(F)c5)c(Cl)c4)c3c2)o1 [Lapatinib] (first compound max 1 µM, 7x7, partner max 10 µM) : met
Cc1c2c(nn1C)CSCc1cc(n(C)n1)CSc1cc(c3ccccc3c1)OCCCc1c(C(=O)O)n(C)c3c-2c(Cl)ccc13 [AZD5991] + Cc1cc2ncnn2cc1Nc1ncc2c(n1)n(C1CCOCC1)c(=O)n2C [AZD7648] (first compound max 1 µM, 7x7, partner max 10 µM) : met
Cc1c2c(nn1C)CSCc1cc(n(C)n1)CSc1cc(c3ccccc3c1)OCCCc1c(C(=O)O)n(C)c3c-2c(Cl)ccc13 [AZD5991] + Cn1cnc2c(F)c(Nc3ccc(Br)cc3Cl)c(C(=O)NOCCO)cc21 [Selumetinib] (first compound max 1 µM, 7x7, partner max 3 µM) : met

Now take the following molecule into account.
Could you verify whether the entry NC1(C(=O)N[C@@H](CCO)c2ccc(Cl)cc2)CCN(c2ncnc3[nH]ccc23)CC1 [Capivasertib] + CC(=O)c1c(C)c2cnc(Nc3ccc(N4CCNCC4)cn3)nc2n(C2CCCC2)c1=O [Palbociclib] (first compound max 10 µM, 7x7, partner max 10 µM) shows combination Emax of no less than 0.2?
not met

---

System: SW837 (Colorectal Carcinoma)
experiment notes: combination Emax (second highest fraction inhibited in the dose matrix, 72 h); higher = more inhibition; extreme values may be limits of the assay
Please go through the items and note down their combination Emax.
Give bare numbers.

CN(CCO)CC[C@H](CSc1ccccc1)Nc1ccc(S(=O)(=O)NC(=O)c2ccc(N3CCC([C@@H](O)c4ccccc4-c4ccc(Cl)cc4)CC3)cc2)cc1S(=O)(=O)C(F)(F)F [AZD4320] + CN(C)CCCOc1ccc(-c2ccc3ncc4c(c3c2)n(C2CCOCC2)c(=O)n4C)cn1 [AZD0156] (first compound max 1 µM, 7x7, partner max 1 µM) : 0.191
CCN(CCO)CCCOc1ccc2c(Nc3cc(CC(=O)Nc4cccc(F)c4)[nH]n3)ncnc2c1 [AZD2811] + C[C@@H]1COCCN1C2=NC(=NC(=C2)C3(CC3)[S@](=N)(=O)C)C4=C5C=CNC5=NC=C4 [AZD6738] (first compound max 1 µM, 7x7, partner max 10 µM) : 0.361

Now look at this one.
get_value(item= CN(CCO)CC[C@H](CSc1ccccc1)Nc1ccc(S(=O)(=O)NC(=O)c2ccc(N3CCC([C@@H](O)c4ccccc4-c4ccc(Cl)cc4)CC3)cc2)cc1S(=O)(=O)C(F)(F)F [AZD4320] + Nc1ccn([C@@H]2O[C@H](CO)[C@@H](O)C2(F)F)c(=O)n1 [Gemcitabine] (first compound max 1 µM, 7x7, partner max 0.3 µM) , readout=combination Emax) returns 0.475

// provenance: the supplement of paper PMC11061612
